The origin of these recorded values is paper PMC7253423.

tested on: SU-DHL-4 cells; experiment: Cell viability assay (CellTiter-Glo luminescence); type: cell-based, human; details: Homo sapiens, SU-DHL-4, 144 h, read-out: relative cell viability (Fig 6d), replicates, SU-DHL-4, Con. 0.15625 μM, fraction of 0 μM control
measurement type: viability at 0.15625 µM (%)
Quick note: give the figure in %, leave out the unit.

Identify measured viability at 0.15625 µM associated with `CC[C@H](Nc1ncnc2[nH]cnc12)c1nc2cccc(F)c2c(=O)n1-c1ccccc1`
99.8

Identify measured viability at 0.15625 µM associated with `C[C@H](NC(=O)c1c(N)nn2cccnc12)c1cc2cccc(C#Cc3cnn(C)c3)c2c(=O)n1-c1ccccc1`
115

Identify measured viability at 0.15625 µM associated with COC(=O)C12OCC34C(CC5C(C)=C(OC(=O)CC(C)N)C(=O)CC5(C)C3C(O)C1O)OC(=O)C(OC(=O)C=C(C)C)C24 (stereo not drawn)
18.6

Identify measured viability at 0.15625 µM associated with `C[C@H](Nc1ncnc2nc[nH]c12)c1cc2cccc(Cl)c2c(=O)n1-c1ccccc1`
85.8

Identify measured viability at 0.15625 µM associated with `COc1c(OCCCN2CCOCC2)ccc2c1N=C(NC(=O)c1cnc(N)nc1)N1CCN=C21`
42.6

Identify measured viability at 0.15625 µM associated with COC(=O)C12OCC34C(CC5C(C)=C(OC(=O)CNC(=O)OC(C)(C)C)C(=O)CC5(C)C3C(O)C1O)OC(=O)C(OC(=O)C=C(C)C)C24 (stereo not drawn)
13.9
